Source: paper PMC9781003

target: DabiOBP5 (Dioryctria abietella, UniProt A0A8E6HS34); assay: Competitive fluorescence binding assay with 1-NPN probe, recombinant DabiOBP5; conditions: ligand at 20 μM; DabiOBP5/1-NPN each 2 μM; Tris-HCl pH 7.4; NB = no binding; read-out: OBP5 F.D. (%) fluorescence displacement percent
Sequence (A0A8E6HS34 19-139): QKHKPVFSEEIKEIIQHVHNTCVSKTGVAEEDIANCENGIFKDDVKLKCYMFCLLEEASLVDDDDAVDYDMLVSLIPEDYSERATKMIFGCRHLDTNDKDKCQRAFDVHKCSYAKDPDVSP
measured_quantity: inhibition at 20 µM (%)
Output spec: scalar in %, unitless text.

What does the data say about its inhibition at 20 µM? Entry: CC1=CC=C(C(C)C)CC1 [α-Terpinene]
35.1

What does the data say about its inhibition at 20 µM? Entry: CCOC(C)=O [Ethyl acetate]
19

What does the data say about its inhibition at 20 µM? Entry: CCCCCCCCC [Nonane]
22.2

What does the data say about its inhibition at 20 µM? Entry: C=CC(C)(O)CCC=C(C)C (stereo not shown) [Linalool]
33.3

What does the data say about its inhibition at 20 µM? Entry: C=C1CC/C=C(\C)CC[C@@H]2[C@@H]1CC2(C)C [β-Caryophyllene]
16.3

What does the data say about its inhibition at 20 µM? Entry: CCCCCCCCCOC(C)=O [Nonyl acetate]
16.5

What does the data say about its inhibition at 20 µM? Entry: CC(=O)OC/C=C(\C)CCC=C(C)C [Geranyl acetate]
26.5

###

test system: DabiOBP14; type: binding, Dioryctria abietella; details: ligand at 20 μM; DabiOBP14/1-NPN each 2 μM; Tris-HCl pH 7.4; NB = no binding
Assign OBP14 F.D. (%) fluorescence displacement percent to each entry below.
Just so you know, I need the unit written after the number.

What does the data say about its OBP14 F.D. (%) fluorescence displacement percent? Entry: COC(C)=O [Methyl acetate]
27.21%

What does the data say about its OBP14 F.D. (%) fluorescence displacement percent? Entry: CCCCC(C)=O
27.57%

What does the data say about its OBP14 F.D. (%) fluorescence displacement percent? Entry: CCC(C)CO (stereo not drawn)
27.78%

What does the data say about its OBP14 F.D. (%) fluorescence displacement percent? Entry: CCCC(=O)OCC [Ethyl butyrate]
31.72%

What does the data say about its OBP14 F.D. (%) fluorescence displacement percent? Entry: CC1=CC[C@@H](C(C)(C)O)CC1
30.28%

What does the data say about its OBP14 F.D. (%) fluorescence displacement percent? Entry: CCCCCOC(C)=O [Amyl acetate]
25.00%

What does the data say about its OBP14 F.D. (%) fluorescence displacement percent? Entry: CCCOC(C)=O [Propyl acetate]
25.46%

What does the data say about its OBP14 F.D. (%) fluorescence displacement percent? Entry: CC1(C)[C@H](C(=O)O[C@H](C#N)c2cccc(Oc3ccccc3)c2)[C@@H]1C=C(Br)Br
38.21%

What does the data say about its OBP14 F.D. (%) fluorescence displacement percent? Entry: CC/C=C\CCOC(C)=O [Z3-Hexenyl acetate]
31.25%

What does the data say about its OBP14 F.D. (%) fluorescence displacement percent? Entry: CCCCCCCCO
35.51%

What does the data say about its OBP14 F.D. (%) fluorescence displacement percent? Entry: CC(C)=CCCC(C)O (stereo not drawn)
33.49%

What does the data say about its OBP14 F.D. (%) fluorescence displacement percent? Entry: CCC/C=C/C=O [E2-Hexenal]
32.34%

What does the data say about its OBP14 F.D. (%) fluorescence displacement percent? Entry: O=CCc1ccccc1
33.05%

What does the data say about its OBP14 F.D. (%) fluorescence displacement percent? Entry: CCCCCCCCCCCCCCCCCCC
15.30%

What does the data say about its OBP14 F.D. (%) fluorescence displacement percent? Entry: CCCCCCCOC(C)=O [Heptyl acetate]
33.70%

What does the data say about its OBP14 F.D. (%) fluorescence displacement percent? Entry: O=[N+]([O-])NC1=NCCN1Cc1ccc(Cl)nc1
39.56%

What does the data say about its OBP14 F.D. (%) fluorescence displacement percent? Entry: CCCCCC(C)=O
33.53%

What does the data say about its OBP14 F.D. (%) fluorescence displacement percent? Entry: CC(C)=CCCC(C)=CC=O (mixture of isomers)
32.25%

What does the data say about its OBP14 F.D. (%) fluorescence displacement percent? Entry: CCCCCC=O
32.96%

What does the data say about its OBP14 F.D. (%) fluorescence displacement percent? Entry: CCOCn1c(-c2ccc(Cl)cc2)c(C#N)c(Br)c1C(F)(F)F
60.84%

What does the data say about its OBP14 F.D. (%) fluorescence displacement percent? Entry: CCCCCCCCCCCC
17.71%

What does the data say about its OBP14 F.D. (%) fluorescence displacement percent? Entry: CCC/C=C/CO [E2-Hexen-1-ol]
18.64%

What does the data say about its OBP14 F.D. (%) fluorescence displacement percent? Entry: OCCc1ccccc1
10.00%

What does the data say about its OBP14 F.D. (%) fluorescence displacement percent? Entry: C=C(C)[C@H]1CC=C(C)CC1
30.81%
